System: Recombinant human c-Cbl (aa 47-435)
Test: c-Cbl Biochemical Assay (TR-FRET)
Conditions: ratio from the Cbl-b and c-Cbl TR-FRET biochemical assays
measurement-name: Cbl-b/c-Cbl Selectivity

| molecule | Cbl-b/c-Cbl Selectivity |
| --- | --- |
| CO[C@@H]1CCCN(Cc2cc(C(F)(F)F)c3oc(-c4cccc([C@]5(c6nncn6C)C[C@@H](C)C5)c4)nc3c2)C1 | 12 |
| CO[C@H]1CCCN(Cc2cc(C(F)(F)F)c3oc(-c4cccc([C@]5(c6nncn6C)C[C@@H](C)C5)c4)nc3c2)C1 | 10 |
| C[C@H]1CCCN(Cc2cc(C(F)(F)F)c3oc(-c4cccc([C@H](c5nncn5C)[C@H]5C[C@@H](C(F)(F)F)C5)c4)nc3c2)C1 (single isomer, unassigned) | 19 |
| C[C@H]1CCCN(Cc2cc(C(F)(F)F)c3oc(-c4cccc([C@H](c5nncn5C)[C@H]5C[C@H](C(F)(F)F)C5)c4)nc3c2)C1 | 2 |
| Cn1cnnc1-c1cc(F)ccc1-c1cc(NC[C@@H](O)CC#N)nc(-c2nc3cc(CN4CCC5(CC5)C4)cc(C(F)(F)F)c3o2)c1 | 14 |

Next molecule, Cbl-b/c-Cbl Selectivity to be filled in.
Prompt: # Cbl-b/c-Cbl Selectivity lookup, item Cn1cnnc1[C@H](c1cccc(-c2nc3cc(CN4CCC5(CCC5)C4)cc(C(F)(F)F)c3o2)c1)[C@H]1C[C@@H](C(F)(F)F)C1
Completion: 1
